# Tested system: DNMT1 (Homo sapiens, UniProt P26358)
# Sequence (P26358 whole entry, looked up): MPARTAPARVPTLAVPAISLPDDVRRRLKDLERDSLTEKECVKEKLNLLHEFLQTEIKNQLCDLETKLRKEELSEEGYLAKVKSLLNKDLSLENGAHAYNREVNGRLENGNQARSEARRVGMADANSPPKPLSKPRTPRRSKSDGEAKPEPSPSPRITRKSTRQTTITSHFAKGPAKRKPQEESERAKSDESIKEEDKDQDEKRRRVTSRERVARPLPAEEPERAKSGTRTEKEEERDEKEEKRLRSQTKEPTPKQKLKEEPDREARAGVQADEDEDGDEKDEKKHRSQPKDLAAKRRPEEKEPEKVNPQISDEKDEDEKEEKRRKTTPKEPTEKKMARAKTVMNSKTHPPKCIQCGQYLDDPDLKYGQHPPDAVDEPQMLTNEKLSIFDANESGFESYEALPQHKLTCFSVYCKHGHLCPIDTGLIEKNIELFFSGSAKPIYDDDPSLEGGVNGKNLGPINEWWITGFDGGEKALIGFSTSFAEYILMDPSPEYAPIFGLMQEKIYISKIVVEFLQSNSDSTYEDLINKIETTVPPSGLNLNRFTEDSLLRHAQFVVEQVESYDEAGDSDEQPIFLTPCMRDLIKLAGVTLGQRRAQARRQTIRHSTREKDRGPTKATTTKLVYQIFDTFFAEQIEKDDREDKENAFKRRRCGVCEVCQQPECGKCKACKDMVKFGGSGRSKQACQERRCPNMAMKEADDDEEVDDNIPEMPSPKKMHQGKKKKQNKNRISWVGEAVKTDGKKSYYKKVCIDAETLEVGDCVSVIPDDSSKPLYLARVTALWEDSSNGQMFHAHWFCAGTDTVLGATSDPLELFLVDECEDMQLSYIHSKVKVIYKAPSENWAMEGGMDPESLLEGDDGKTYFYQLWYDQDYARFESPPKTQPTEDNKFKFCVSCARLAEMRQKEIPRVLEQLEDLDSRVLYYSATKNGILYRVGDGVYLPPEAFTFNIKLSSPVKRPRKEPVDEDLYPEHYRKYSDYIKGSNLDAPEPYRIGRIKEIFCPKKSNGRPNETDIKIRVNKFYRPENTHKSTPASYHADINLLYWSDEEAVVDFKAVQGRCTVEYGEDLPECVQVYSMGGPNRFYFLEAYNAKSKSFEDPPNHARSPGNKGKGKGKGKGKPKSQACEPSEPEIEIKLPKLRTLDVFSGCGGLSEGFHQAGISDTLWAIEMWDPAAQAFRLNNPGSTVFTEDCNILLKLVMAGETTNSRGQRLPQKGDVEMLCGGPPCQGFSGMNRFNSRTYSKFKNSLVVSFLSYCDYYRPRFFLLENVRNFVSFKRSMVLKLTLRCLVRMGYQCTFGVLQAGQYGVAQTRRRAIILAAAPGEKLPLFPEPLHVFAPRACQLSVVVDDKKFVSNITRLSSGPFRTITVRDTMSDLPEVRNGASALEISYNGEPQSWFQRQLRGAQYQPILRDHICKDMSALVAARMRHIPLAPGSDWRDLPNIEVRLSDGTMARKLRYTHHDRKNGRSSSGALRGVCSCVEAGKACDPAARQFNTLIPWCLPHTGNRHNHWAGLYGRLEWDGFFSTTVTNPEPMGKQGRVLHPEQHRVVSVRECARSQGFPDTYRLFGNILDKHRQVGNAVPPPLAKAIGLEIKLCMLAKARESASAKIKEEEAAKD
# Method: DNMT1 biochemical activity, breaklight assay and/or SPA assay
# Assay setup: binned activity in either the breaklight or the SPA assay
Structures can show the parent of a compound that is named as a salt.
Observation type: DNMT1 BioChemical (pIC50 category)

Worked set:
INSERT INTO assay_data (compound, observation_type, reported_result) VALUES
  ('CCc1c(C#N)c(SC(C(N)=O)c2ccc(C(N)=O)cc2)nc(N2CCCN(C)CC2)c1C#N (stereo not shown) [Example 368]', 'DNMT1 BioChemical (pIC50 category)', 'D (Category D: ≥6.5)'),
  ('CCc1c(C#N)c(SC(C(N)=O)c2ccccc2)nc(N2CCC(N3CCC[C@H]3C)CC2)c1C#N (stereo partly shown) [Example 451]', 'DNMT1 BioChemical (pIC50 category)', 'D (Category D: ≥6.5)'),
  ('CCc1c(C#N)c(SC(C(N)=O)c2ccccc2)nc(N2CCC(N3CCC[C@H]3CO)CC2)c1C#N (stereo partly shown) [Example 441]', 'DNMT1 BioChemical (pIC50 category)', 'D (Category D: ≥6.5)'),
  ('CCc1c(C#N)c(SC(C(N)=O)c2ccccc2)nc(N2CCC(NC(=O)[C@@H](N)CO)CC2)c1C#N (stereo partly shown) [Example 399]', 'DNMT1 BioChemical (pIC50 category)', 'D (Category D: ≥6.5)');

Looking up CCc1c(C#N)c(S[C@@H](C(N)=O)c2ccccc2)nc(N2CC[C@@H](NC(=O)OC(C)(C)C)[C@H](O)C2)c1C#N [Example 542] , I found its DNMT1 BioChemical (pIC50 category) recorded as D (Category D: ≥6.5)

Looking up CN(CCCN)c1nc(SC(C(N)=O)c2ccccc2)c(C#N)c(C2CC2)c1C#N (stereo not shown) [Example 391, Hydrochloride] , I found its DNMT1 BioChemical (pIC50 category) recorded as D (Category D: ≥6.5)

Looking up CCc1c(C#N)c(SC(C(N)=O)c2ccccc2)nc(N2CCC(C)(NCCO)CC2)c1C#N (stereo not shown) [Example 643] , I found its DNMT1 BioChemical (pIC50 category) recorded as D (Category D: ≥6.5)

---

Each record here notes measured EC50.
# Test system: erythroid progenitor cells (EPCs)
# Method: Fetal hemoglobin (HbF) ELISA in day 7 erythroid progenitor cells;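 note: for fetal hemoglobin induction normalized to vehicle-treated cells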
# Assay type: cell-based, human
# Assay setup: Homo sapiens, Erythroid progenitor cell, HbF ELISA, day 7 EPCs, 5 days; read-out: EPC ELISA (pEC50 category) (converted)

Worked set:
INSERT INTO measurements (compound, tested_system, observation_type, reported_result) VALUES
  ('CCc1c(C#N)c(SC(C(N)=O)c2ccccc2)nc(N(C)Cc2nnc[nH]2)c1C#N (stereo not shown)', 'erythroid progenitor cells (EPCs)', 'EC50', '< 0.316 µM'),
  ('CCc1c(C#N)c(N[C@@H](C(N)=O)c2ccccc2)nc(N2CCCN(CCCN3CCCC3)CC2)c1C#N', 'erythroid progenitor cells (EPCs)', 'EC50', '> 31.6 µM'),
  ('CCc1c(C#N)c(S[C@@H](C(N)=O)c2ccc(F)cc2)nc(N2CC[C@H](OP(=O)(O)O)C2)c1C#N', 'erythroid progenitor cells (EPCs)', 'EC50', '> 31.6 µM');

Next compound, EC50 to be filled in.
Given the compound CCNC(=O)NCc1ccc(CSc2nc(N3CCCN(C)CC3)c(C#N)c(CC)c2C#N)cc1 and test system erythroid progenitor cells (EPCs), the measured EC50 is 1 to 31.6 µM

Origin of the recorded values: patent US10975056B2
